Test system: SN12C renal
EXPERIMENT: NCI-60 one-dose screen, 48 h (100 = growth as untreated, 0 = no growth, -100 = all killed)
CONDITION_INFO: 10 µM unless noted
This is part of a sample that, as a whole, favours compounds with a hit. Of some 83,000 tested, about 20% had one in any assay.
Respond with label 1 for growth values of 30% and above, label 0 for values below.

Query: Hi, just wondering whether COc1ccc(-n2c(C)nc3cc(OC)c(OC)cc3c2=O)cc1OC shows growth of 30% or higher.
Reply: label 1

Query: Hi, just wondering whether CC(=O)Oc1ccccc1C(=O)NCCC[Se]C#N shows growth of 30% or higher.
Reply: label 0

Query: Hi, just wondering whether CCC1CC(O)c2c(O)c3c(c(O)c2C1O)C(=O)c1cccc(O)c1C3=O (stereo not drawn) (tested in a mixture with another compound) shows growth of 30% or higher.
Reply: label 0

Query: Hi, just wondering whether Nc1ccc2c(c1)Cc1cc(Br)ccc1-2 shows growth of 30% or higher.
Reply: label 1

Query: Hi, just wondering whether O=C(N/N=C/c1ccc(N(CCCl)CCCl)cc1)c1cccc2ccccc12 shows growth of 30% or higher.
Reply: label 1

Query: Hi, just wondering whether CC(=O)OC1C(OC/C2=C/C3[C@@H](C(C)C)CC=C(C)[C@@H]3CC(OC(=O)/C=C/c3cn(C)cn3)[C@]3(C)C=C[C@@]2(O)O3)OCC(O)C1O (stereo partly drawn) shows growth of 30% or higher.
Reply: label 1

Query: Hi, just wondering whether O=C1NC(=O)C(=Cc2cn(C(=O)c3ccccc3)c3ccccc23)C(=O)N1 shows growth of 30% or higher.
Reply: label 1

Query: Hi, just wondering whether COC(=O)[C@@H](C)C[C@H](Cc1ccccc1)NC(=O)c1csc([C@@H](C[C@H](C(C)C)N(C)C(=O)C2(NC(=O)[C@H]3CCCCN3C)CC2)OC(C)=O)n1 shows growth of 30% or higher.
Reply: label 1

====

System: KM12 colon
EXPERIMENT: NCI-60 one-dose screen, 48 h
CONDITION_INFO: 10 µM unless noted
Experimental: Growth inhibition of the KM12 human tumor cell line is measured as a screen for anti-cancer activity. Cells are grown in 96 well plates and exposed to the test compound for 48 hours. Compounds are tested at a single concentration, which is 10^-5 M for most compounds. The reported endpoint is percent growth (GI% or GIPRCNT), where numbers from 0 - 100% represent growth inhibition, and numbers from -100% - 0 represent cell death. For example, a value of 40 represents 60% growth inhibition. […]
Compounds without any hit were thinned out: in the full panel of roughly 83,000, 20% have a hit. The source made the active and inactive calls. How the source made its calls: active means growth percent below 10; inactive means the rest.
I would appreciate it if you answered using one of these outcomes: 1 (yes) for active, 0 (no) for inactive

Query: In this assay, the call recorded for c1cc2c(c3c1CCNC3)OCO2 was what?
Reply: 0 (no)

Query: In this assay, the call recorded for CNC(=O)Oc1ccc(N(C)C)cc1C(C)C was what?
Reply: 0 (no)

Query: In this assay, the call recorded for O=C(Nc1ccncc1F)c1cn(CC2CC2)c2ccccc12 was what?
Reply: 0 (no)

Query: In this assay, the call recorded for CC(=O)O[C@H](C[C@H](C(C)C)N(C)C(=O)[C@@H](NC(=O)[C@H]1CCCCN1C)C(C)C)c1cccc(C(=O)N[C@@H](Cc2ccccc2)C[C@H](C)C(=O)O)n1 was what?
Reply: 1 (yes)

Query: In this assay, the call recorded for Brc1ccc2c(c1)c(-c1nc(-c3c[nH]c4ncccc34)cs1)cn2CCN1CCOCC1 was what?
Reply: 0 (no)

Query: In this assay, the call recorded for [Cl][Hg][n]1c(-c2ccco2)nc2ccccc21 was what?
Reply: 0 (no)

Query: In this assay, the call recorded for O=NN1CCCc2cccc(O)c21 was what?
Reply: 0 (no)

Query: In this assay, the call recorded for Nc1c(F)cc(-c2nc3cc(F)ccc3[se]2)cc1F was what?
Reply: 0 (no)

Query: In this assay, the call recorded for CCOC(=O)N1CC1 was what?
Reply: 0 (no)

Query: In this assay, the call recorded for CC12CCC(O)CC1=CCC1C2CCC2(C)C(O)CCC12 (stereo unspecified) was what?
Reply: 0 (no)

Query: In this assay, the call recorded for O=NNc1ccccn1 was what?
Reply: 0 (no)

Query: In this assay, the call recorded for COc1cc2c(=O)n(C3CCCCCCC3)c3c4cc[nH]c4ncc3c2cc1OC was what?
Reply: 0 (no)

Query: In this assay, the call recorded for CC1(C)C(C(=O)c2cn(CCCCF)c3ccccc23)C1(C)C was what?
Reply: 0 (no)

Query: In this assay, the call recorded for CC1=C(CN)C2=C(C)C3(CC3)[C@@](C)(O)C(=O)C2=C1 was what?
Reply: 0 (no)

Query: In this assay, the call recorded for N#C[Se]CCN1C(=O)c2ccccc2C1=O was what?
Reply: 0 (no)

Query: In this assay, the call recorded for CCNc1nc(Cl)nc(NCC)n1 was what?
Reply: 0 (no)

Query: In this assay, the call recorded for COc1cc2c(cc1OCc1ccccc1)C(CC(C)C)=[N+](C)CC2 was what?
Reply: 0 (no)

Query: In this assay, the call recorded for CCCC[C@H](NC(=O)[C@H]1CCCN1C)C(=O)N(C)[C@H](C[C@@H](OC(C)=O)c1nc(C(=O)N[C@@H](Cc2ccccc2)C[C@H](C)C(=O)OCC)cs1)C(C)C was what?
Reply: 0 (no)

Query: In this assay, the call recorded for CC[C@H](C)[C@H](NC(=O)C12C3C4C1C1C2C3C41NC)C(=O)N(C)[C@H](C[C@@H](OC(C)=O)c1nc(C(=O)N[C@@H](Cc2ccccc2)C[C@H](C)C(=O)OC)cs1)C(C)C (stereo partly specified) was what?
Reply: 0 (no)

Query: In this assay, the call recorded for O=C1NC(=O)C(=Cc2ccc(OCCCCC3CCCCC3)c(Cl)c2)C(=O)N1 was what?
Reply: 0 (no)

Query: In this assay, the call recorded for COC(=O)[C@@H](C)C[C@H](Cc1ccccc1)NC(=O)c1csc([C@@H](C[C@H](C(C)C)N(C)C(=O)[C@H](C)NC(=O)[C@H]2CCCCN2C)OC(C)=O)n1 was what?
Reply: 0 (no)

====

Assignment: determine reported growth for the given compounds.
System: HCC-2998 colon
EXPERIMENT: NCI-60 one-dose screen, 48 h (100 = growth as untreated, 0 = no growth, -100 = all killed)
CONDITION_INFO: 10 µM unless noted
The panel holds about 83,000 compounds, 20% with a hit somewhere; the sample as a whole holds those more often.
// units = %; emit number, no label

Query: Provide the documented growth with HCC-2998 colon as the system for O=C(O)C1C(C(=O)O)C2(Cl)C(Cl)=C(Cl)C1(Cl)C2(Cl)Cl.[Hg] (configuration not stated)
Reply: 116

Query: Provide the documented growth with HCC-2998 colon as the system for O=C1Nc2ccccc2C2c3cccn3-c3ccccc3CN12 (configuration not stated)
Reply: 71.1

Query: Provide the documented growth with HCC-2998 colon as the system for CN1C(=O)C23CC4(C56CC78SSC(CO)(C(=O)N7C5Nc5ccccc56)N(C)C8=O)c5ccccc5NC4N2C(=O)C1(CO)SS3 (configuration not stated)
Reply: -94.2

Query: Provide the documented growth with HCC-2998 colon as the system for Cc1cc(N(CCCl)CCCl)ccc1C=Nc1ccccc1-c1ccccc1
Reply: 96.9

Query: Provide the documented growth with HCC-2998 colon as the system for Cc1ccc2c(C(C[N+](=O)[O-])c3cccs3)c(-c3ccccc3)[nH]c2c1 (configuration not stated)
Reply: 40.3

Query: Provide the documented growth with HCC-2998 colon as the system for CC[CH2][Sn]([Cl])([Cl])[CH2]CC
Reply: 87.7

Query: Provide the documented growth with HCC-2998 colon as the system for O=C(O)C(O)C(O)C1[O][Sb]([c]2ccc([N+](=O)[O-])cc2)[O]C1CO (configuration not stated)
Reply: 105

Query: Provide the documented growth with HCC-2998 colon as the system for COC(=O)[C@@]1(C)CC[C@]2(C)CC[C@]3(C)C4=CC(=O)c5c(cc(O)c(O)c5C)[C@]4(C)CC[C@@]3(C)[C@@H]2C1
Reply: 76.7

Query: Provide the documented growth with HCC-2998 colon as the system for COC(=O)[C@@H](C)C[C@H](Cc1ccccc1)NC(=O)c1csc([C@@H](C[C@H](C(C)C)N(C)C(=O)[C@@H](NC(=O)[C@H]2CCCCN2C)C(C(F)(F)F)C(F)(F)F)OC(C)=O)n1
Reply: 19.9

Query: Provide the documented growth with HCC-2998 colon as the system for C/C=C(\C)C(=O)O[C@@H]1C(O)[C@H]2OC(COC(=O)CCC(=O)CCCCCC[C@H](CCCCC)O[C@@H]3OC(C)[C@H](OC(C)=O)C(O)[C@H]3O2)[C@H]1OC(=O)/C=C/c1ccccc1 (some centres not stated)
Reply: 39.3

Query: Provide the documented growth with HCC-2998 colon as the system for C=CCc1cc2c(cc1OCC)OCO2
Reply: 93.8

Query: Provide the documented growth with HCC-2998 colon as the system for Cc1ccccc1NC(=NCCCN1CC1)Nc1ccccc1C
Reply: 102

Query: Provide the documented growth with HCC-2998 colon as the system for Fc1cccc(NCOOC2(OOCNc3cccc(F)c3)CCCCC2)c1
Reply: 105

Query: Provide the documented growth with HCC-2998 colon as the system for COc1cccc2c1c(C(=O)C(=O)Nc1ccn[nH]1)cn2Cc1ccc(F)cc1
Reply: 39.6

Query: Provide the documented growth with HCC-2998 colon as the system for O=C(CC1(O)C(=O)Nc2ccc(Br)cc21)c1ccc(C(=O)NCC2CCC3(CC2)OOC2(CCCCC2)OO3)cc1 (configuration not stated)
Reply: 99.7

Query: Provide the documented growth with HCC-2998 colon as the system for C[C@]12CC[C@H]3[C@@H](CC[C@]4(O)C[C@@H](O[C@@H]5O[C@H](CO)[C@@H](O[C@@H]6OC[C@@H](O)[C@H](O)[C@H]6O)[C@H](O)[C@H]5O)CC[C@]34C=O)[C@@]1(O)CC[C@@H]2C1=CC(=O)OC1
Reply: 38.8

Query: Provide the documented growth with HCC-2998 colon as the system for Cc1cccc(N2CCN(C(C)C#N)CC2)c1 (configuration not stated)
Reply: 96.9

Data credit: PubChem BioAssay (NCI)
